Attribution: patent US20100152531A1

# Half Life 37° C., pH 7.4 per entry
Test: Half life of NONOates (diazeniumdiolates) at 37° C., pH 7.4
Type: physicochemical
The response must be a number in min with no trailing unit.

> print(dat)
                                   molecule  reported.result
1  CN(C)[N+]([O-])=N[O-].[Na+] [Compound 1]              0.2

Attention now shifts to the item below.
Half Life 37° C., pH 7.4 lookup needed for CN(C)/[N+]([O-])=N/[O-].[Na+] [Compound 2] , thanks.
2
